Cited source: PubChem BioAssay (NCI)

- System: DU-145 prostate
- procedure.summary: NCI-60 one-dose screen, 48 h (100 = growth as untreated, 0 = no growth, -100 = all killed)
- setup.conditions: 10 µM unless noted
About 83,000 compounds went through this panel and 20% of them were active in at least one assay; those are over-represented in the sample as a whole.
metric.name: growth (%)
Number in %, nothing else.

Requested field: growth. Item: "COc1ccc(-c2nc(Cl)c3c(C)nn(-c4ccc(F)cc4)c3n2)cc1"
111

Try this molecule next: "Cc1ccc(-c2nc3nc(-c4ccc(Br)cc4)nc(N4CCCNCC4)c3o2)cc1"
14.2

Try this molecule next: "CCCCCCCCCCCCCCCCCCn1cc(COc2ccc(C=O)cc2)nn1"
92.4

Try this molecule next: COc1ccc(C2Nc3nc(SC)nc(N)c3N=C3c4ccccc4CCC32)cc1 (centres undefined)
70.9

Try this molecule next: "COC1=CC(=O)C(OC)=C(O)C1=O"
109

Try this molecule next: "O=C(Nc1ccccc1C(=O)N/N=C(\c1ccccc1)c1ccccn1)c1ccccc1"
14.1

Try this molecule next: "CCN1CCN(C(=O)[C@]23CC[C@@H](C)[C@H](C)[C@@H]2C2=CC[C@@H]4[C@@]5(C)CCC(=O)C(C)(C)[C@@H]5CC[C@@]4(C)[C@]2(C)CC3)CC1"
41.5

Try this molecule next: "N=C(N)c1ccc(-c2ccc(-c3ccc(Cl)c(Cl)c3)s2)cc1"
-88.9

Try this molecule next: CCN1C(=O)N(c2ccccc2)C2NC(=S)N(/N=C/C=C/c3ccccc3)C21 (centres undefined)
8.79

Try this molecule next: "Clc1ccc(Nc2nc(Nc3ccc(Cl)cc3)nc(Nc3ccc(-c4cc(-c5cccc(Cl)c5)on4)cc3)n2)cc1"
110

Try this molecule next: "C[N+]1=C(/C=C\C=C\c2ccccc2)C(C)(C)c2ccccc21"
48.7

Try this molecule next: O=C(CN1C(=O)S/C(=C\C(Cl)=C\c2ccccc2)C1=O)NC1C=CS(=O)(=O)C1 (centres undefined)
24.8

Try this molecule next: "Cc1oc2c(Cc3ccc(NC(=O)c4ccc(Cl)cc4)cc3)ncnc2c1C(=O)NO"
105

Try this molecule next: "Clc1ccc2c(c1)N(c1ncnc3ccc(-c4cnc5[nH]ccc5c4)cc13)CC2"
27.6

----------
- Tested on: UACC-62 melanoma
- procedure.summary: NCI-60 one-dose screen, 48 h
- setup.conditions: 10 µM unless noted
Compounds without any hit were thinned out: in the full panel of roughly 83,000, 20% have a hit. The source made the active and inactive calls. The calls were made as follows: active = growth percent below 10; inactive = the rest.
Parameter call: string, one of active, inactive

Fill in: this test's call for "Clc1ccc2c(NCCN3CCN(c4ccnc(N5CCCC5)n4)CC3)ccnc2c1" is ___
active

Try this compound next: "CCCCCCCC/C=C\CCCCCCCCOc1ccccc1CC(=O)NCC[N+]1(C)CCOCC1"
inactive

Try this compound next: "COc1cc(/C=C(/c2ccccc2)[N+](=O)[O-])c(OC)c2c1OCO2"
active

Try this compound next: "CC(=O)OC[C@]12CCC(C)(C)C=C1[C@H]1CC[C@@H]3[C@@]4(C)CCCNC(C)(C)[C@@H]4CC[C@@]3(C)[C@]1(C)CC2"
inactive

Try this compound next: "COc1ccc2c(O)c(/C=C3\N=Nc4nc(C)ccc43)oc2c1CC1CCNCC1"
active

Try this compound next: CCOC(=O)CC1CSC(c2cccc(Cl)c2)=N1 (configuration not stated)
inactive

Try this compound next: "COc1cc(/C=C2\C(=O)N(CCCCn3c4ccccc4c(=O)c4ccccc43)c3ccccc32)cc(OC)c1O"
inactive

Try this compound next: "O=C(Cc1ccc(F)cc1)c1ccccc1"
inactive

Try this compound next: "CNC(=O)c1cc(Oc2ccc3nc(NC(=O)Nc4ccc(C(F)(F)F)cc4)sc3c2)ccn1"
inactive

Try this compound next: "CN1CCN(Cc2ccc(NC(=O)c3nc4ccc5[nH]ncc5c4c4c3CCCC4)cc2C(F)(F)F)CC1"
active

Try this compound next: O=C(/C=C/C12c3ccccc3C(c3ccccc31)C1C(=O)NC(=O)C12)c1ccncc1 (configuration not stated)
inactive

Try this compound next: "CCOC(=O)c1nnn(Cc2cc(=O)oc3c2ccc2ccccc23)c1C"
inactive

Try this compound next: "Cc1cc(N2CCN(CC(=O)Nc3ccc4c(ccn4Cc4ccccc4)c3)CC2)nc(N2CCCCCC2)n1"
inactive

Try this compound next: "Cn1c(=O)c2c(nc(Nc3cc(=O)[nH]c(=O)[nH]3)n2Cc2ccccc2)n(C)c1=O"
inactive

Try this compound next: C#CCOc1cccc(Nc2ncc3ncn(C4CCN(C(=O)CCl)C4)c3n2)c1 (configuration not stated)
inactive

Try this compound next: "[Cu+].[NH-][C@H]1C[N-]C(=O)[C@H]([C@H]2CCN=C(N)N2)[N-]C(=O)/C(=C\NC(N)=O)[N-]C(=O)[C@H](CNC(=O)C[C@@H](N)CCCN)[N-]C(=O)[C@H](CO)[N-]C1=O"
inactive

Try this compound next: "O=c1cc(N/N=C/c2ccc(F)cc2)c2cc(Cl)ccc2[nH]1"
inactive

Try this compound next: "CCN(CC)/C([O-])=c1\cccc\c1=C1\N=C(c2ccccc2)N=C1[n+]1ccc(-c2ccccc2)cc1"
inactive

Try this compound next: "COc1ccc(-c2ccccc2)cc1-c1c(Nc2cc(Cl)cc(Cl)c2O)c(=O)c1=O"
inactive

Try this compound next: CCCn1nc(C(=O)N2CCCCC2)c2c1CCC(N1CCC(c3ccncc3)CC1)C2 (configuration not stated)
inactive

Try this compound next: "Nc1c(C(=O)Nc2ccncc2)sc2nc3c(cc12)CCCCCCCC3"
active

Try this compound next: "COc1cc(OC)cc(-c2ccc(-c3ccc(C(=N)N)cn3)s2)c1"
inactive

----------
- Tested on: HOP-92 NSCLC
- procedure.summary: NCI-60 one-dose screen, 48 h (100 = growth as untreated, 0 = no growth, -100 = all killed)
- setup.conditions: 10 µM unless noted
Compounds without any hit were thinned out: in the full panel of roughly 83,000, 20% have a hit.
metric.name: growth (%)
Number in %, nothing else.

Requested field: growth. Item: "NS(=O)(=O)c1ccc(C(=O)N=Nc2c(O)[nH]c3c(F)cccc23)cc1"
98.2

Try this compound next: "Nc1ncc(-c2ccc3ncnc(N4CCc5ccc(Cl)cc54)c3c2)cc1C(F)(F)F"
-7.6

Try this compound next: O=C(/C=C/C12c3ccccc3C(c3ccccc31)C1C(=O)NC(=O)C12)c1ccncc1 (stereo not given)
23.6

Try this compound next: "C=CCOc1ccc(/C=C2\SC(=S)N(CCc3ccc(O)cc3)C2=O)cc1"
-2.76

Try this compound next: "N#Cc1c(-c2cccc(F)c2)cc(-c2cccnc2)[nH]c1=O"
110

----------
- Test system: IGROV1 ovarian
- procedure.summary: NCI-60 one-dose screen, 48 h (100 = growth as untreated, 0 = no growth, -100 = all killed)
- setup.conditions: 10 µM unless noted
Compounds without any hit were thinned out: in the full panel of roughly 83,000, 20% have a hit.
We label by threshold. Values of growth strictly beneath 70% are class 1. Values of 70% and up are class 0.

Check if growth falls below 70% for "O=C(Cn1cc(CN2CCN(c3ccnc4cc(Cl)ccc34)CC2)nn1)Nc1cccc([N+](=O)[O-])c1" .
class 1

Try this compound next: "CN(C)C1CCN(C(=O)c2ccc(NC(=O)Nc3ccc(-c4nc(N5CCOCC5)c5cccn5n4)cc3)cc2)CC1"
class 1

Try this compound next: "Fc1ccccc1-c1cnn2cc(-c3ccccc3)cnc12"
class 0

Try this compound next: CCCn1nc(C(=O)N2CCCCC2)c2c1CCC(N1CCC(c3ccncc3)CC1)C2 (centres undefined)
class 0

Try this compound next: "[Cu+].[NH-][C@H]1C[N-]C(=O)[C@H]([C@H]2CCN=C(N)N2)[N-]C(=O)/C(=C\NC(N)=O)[N-]C(=O)[C@H](CNC(=O)C[C@@H](N)CCCN)[N-]C(=O)[C@H](CO)[N-]C1=O"
class 0

Try this compound next: "CCCCCCCCn1ccc2cc(NC(=O)CN3CCN(c4nc(C)cc(N5CCCCC5)n4)CC3)ccc21"
class 0

Try this compound next: "NCCOCCOc1ccccc1"
class 0

Try this compound next: "CC1(C)C(N)=Nc2cc(OCCCCN3Cc4ccccc4C3)c(OCC3CC3)cc21"
class 0

Try this compound next: "CCOC(=O)c1ccc(Nc2ncnc3c2cnn3-c2cccc(F)c2)cc1"
class 0

Try this compound next: CC1=CC=C(NC(=O)/C=C/c2ccccc2)CC1Nc1nccc(-c2cccnc2)n1 (centres undefined)
class 1

Try this compound next: CCOC(=O)C1=C(C)NC(=O)NC1c1c(Cl)n(-c2ccccc2)c2ccccc12 (centres undefined)
class 1

Try this compound next: "c1cc(NCCCCN2CCOCC2)c2ccc3c(ccc4c(NCCN5CCOCC5)ccnc43)c2n1"
class 1

Try this compound next: "COc1ccc(-c2nc(Cl)c3c(C)nn(-c4ccc(F)cc4)c3n2)cc1"
class 0

Try this compound next: "Clc1ccc(/C=N\N2CCCCCC2)cc1"
class 0

Try this compound next: "O=C(Nc1ccccc1C(=O)N/N=C(\c1ccccc1)c1ccccn1)c1ccccc1"
class 1

Try this compound next: "N#Cc1cc(-c2ccnc(Nc3ccc(NC(=O)CCl)cc3)n2)ccc1N1CCCC1"
class 1

Try this compound next: "CC(C)(C)c1cc(C(C)(C)c2ccccc2)cc(Cc2cc(C(C)(C)c3ccccc3)cc(C(C)(C)C)c2O)c1O"
class 0
